- Tested on: 786-0 renal
- measurement.protocol: NCI tumour cell line growth inhibition, 48 h
List of TGI values.

compound	TGI
CC(=O)O[C@H]1CC[C@@]2(C)[C@@H](CC[C@@H]3[C@@H]2CC(=O)[C@@]2(C)[C@H]3C[C@@H]3CC(C)=CC(=O)[C@@H]32)C1	> 100 µM
c1ccc2c(c1)-c1nc3ccccc3cc1C2N1CCOCC1 (centres undefined)	> 100 µM
CCOC1=NC(C(F)(F)F)(C(F)(F)F)N=C(/N=C(/N)N(C)C(C(C)C)P(=O)(OC(C)C)OC(C)C)O1 (centres undefined)	> 100 µM
O=c1c2ccc(Br)cc2nc(-c2ccccc2)n1NC1OC(CO)C(O)C(O)C1O (centres undefined)	> 100 µM
COc1ccc(/C=C\c2cc(OC)c(OC(C)=O)c(OC)c2)cc1	> 100 µM
[B]C(=O)NC(CC(C)C)C(=O)NC1c2ccsc2C(=O)C1O (centres undefined) (tested in a mixture with another compound)	> 100 µM
COc1cc(C2C(Cl)C(=O)N2NC(=O)c2ccccc2O)cc(OC)c1OC (centres undefined)	> 10 µM
COc1ccc(-c2cc(-c3ccncc3)nc(N)c2-c2ccc(F)cc2)cc1	> 100 µM
CCCCCCCCCCCCCCCc1nc(SCC(=O)O)n[nH]1	42.1 µM
